# credit: patent US20240327497A1

# Tested on: canine FcRn (FcRn large subunit with canine beta-2-microglobulin) (canine)
# Experiment: SPR pH 5.9, IgG coupled to C1 chip, 1:1 kinetic fit
Measured attribute: koff (s⁻¹)
# unit: s⁻¹ | format: bare number

{"Binder": "anti-NGF canine IgGB antibody, Fc variant A426H (antibody, part only; not given: Anti-NGF variable domains, not shown: another chain or arm of the molecule; small tags and cut ends) Fc: APEMLGGPSVFIFPPKPKDTLLIARTPEVTCVVVDLDPEDPEVQISWFVDGKQMQTAKTQPREEQFNGTYRVVSVLPIGHQDWLKGKQFTCKVNNKALPSPIERTISKARGQAHQPSVYVLPPSREELSKNTVSLTCLIKDFFPPDIDVEWQSNGQQEPESKYRTTPPQLDEDGSYFLYSKLSVDKSRWQRGDTFICHVMHEALHNHYTQESLSHSPGK", "Unit": "s⁻¹", "koff": 0.142}
{"Binder": "anti-NGF canine IgGB antibody, Fc variant A426H + T286Y (antibody, part only; not given: anti-NGF variable domains and light chain, not shown: another chain or arm of the molecule; small tags and cut ends) Fc: APEMLGGPSVFIFPPKPKDTLLIARTPEVTCVVVDLDPEDPEVQISWFVDGKQMQYAKTQPREEQFNGTYRVVSVLPIGHQDWLKGKQFTCKVNNKALPSPIERTISKARGQAHQPSVYVLPPSREELSKNTVSLTCLIKDFFPPDIDVEWQSNGQQEPESKYRTTPPQLDEDGSYFLYSKLSVDKSRWQRGDTFICHVMHEALHNHYTQESLSHSPGK", "Unit": "s⁻¹", "koff": 0.0286}

Prompt line: Fill in: koff of anti-NGF canine IgGB antibody, Fc variant A426H + T286L (antibody, part only; not given: Anti-NGF variable domains, not shown: another chain or arm of the molecule; small tags and cut ends) Fc: APEMLGGPSVFIFPPKPKDTLLIARTPEVTCVVVDLDPEDPEVQISWFVDGKQMQLAKTQPREEQFNGTYRVVSVLPIGHQDWLKGKQFTCKVNNKALPSPIERTISKARGQAHQPSVYVLPPSREELSKNTVSLTCLIKDFFPPDIDVEWQSNGQQEPESKYRTTPPQLDEDGSYFLYSKLSVDKSRWQRGDTFICHVMHEALHNHYTQESLSHSPGK is ___
Response line: 0.0417
